Tested on: CAPAN-1 (a BRCA-2-mutated pancreatic cancer cell line)
EXPERIMENT: Cell proliferation assay, three-day, CellTiter-Glo, CAPAN-1
Assay type: cell-based
CONDITION DETAILS: Homo sapiens; CAPAN-1, Conc. 33.33 uM, replicate 1; read-out: Inh % 1
If the reported inhibition at 33.33 µM equals or exceeds 30%, assign criterion met. If not, assign criterion not met.

- MOLECULE: "NC(=O)c1cccc2[nH]c(C3CCN(CCCNC(=O)c4ccccc4)C3)nc12 (centres unmarked) [Compound 5cn]"
  TGT: "CAPAN-1 (a BRCA-2-mutated pancreatic cancer cell line)"
  CATEGORY: "criterion not met"
- MOLECULE: "NCCCN1CCC(c2nc3c(C(N)=O)cccc3[nH]2)C1 (centres unmarked) [Compound 5cl]"
  TGT: "CAPAN-1 (a BRCA-2-mutated pancreatic cancer cell line)"
  CATEGORY: "criterion not met"
- MOLECULE: "C[C@]1(c2nc3c(C(N)=O)cccc3[nH]2)CCCN1 [pc1, Veliparib, reference compound]"
  TGT: "CAPAN-1 (a BRCA-2-mutated pancreatic cancer cell line)"
  CATEGORY: "criterion not met"
- MOLECULE: "NC(=O)c1cccc2[nH]c(C3CCN(CCC(=O)c4ccccc4)C3)nc12 (centres unmarked) [Compound 5cp]"
  TGT: "CAPAN-1 (a BRCA-2-mutated pancreatic cancer cell line)"
  CATEGORY: "criterion met"
- MOLECULE: "NCCN1CCC(c2nc3c(C(N)=O)cccc3[nH]2)C1 (centres unmarked) [Compound 5cm]"
  TGT: "CAPAN-1 (a BRCA-2-mutated pancreatic cancer cell line)"
  CATEGORY: "criterion not met"

Check the entry NC(=O)c1cccc2[nH]c(C3CCN(CCNC(=O)c4ccccc4)C3)nc12 (centres unmarked) [Compound 5co] : does inhibition at 33.33 µM equal or exceed 30%?
criterion not met

Check the entry O=C(c1cc(Cc2n[nH]c(=O)c3ccccc23)ccc1F)N1CCN(C(=O)C2CC2)CC1 [pc2, Olaparib, reference compound] : does inhibition at 33.33 µM equal or exceed 30%?
criterion met

###

Measured inhibition at 100 µM values are reported for all entries that follow.
System: CAPAN-1 (a BRCA-2-mutated pancreatic cancer cell line)
EXPERIMENT: Cell proliferation assay, three-day, CellTiter-Glo, CAPAN-1
Assay type: cell-based
CONDITION DETAILS: Homo sapiens; CAPAN-1, Conc. 100.00 uM, replicate 1; read-out: Inh % 1
Reply numerically in %, unit not repeated.

Consider the reported inhibition at 100 µM for these compounds:
- COMPOUND: "O=C(c1cc(Cc2n[nH]c(=O)c3ccccc23)ccc1F)N1CCN(C(=O)C2CC2)CC1 [pc2, Olaparib, reference compound]"
  TGT: "CAPAN-1 (a BRCA-2-mutated pancreatic cancer cell line)"
  inhibition at 100 µM, %: 48.2
- COMPOUND: "NC(=O)c1cccc2[nH]c(C3CCN(CC(=O)Nc4ccccc4)C3)nc12 (centres unmarked)"
  TGT: "CAPAN-1 (a BRCA-2-mutated pancreatic cancer cell line)"
  inhibition at 100 µM, %: 59.9
- COMPOUND: "NCCN1CCC(c2nc3c(C(N)=O)cccc3[nH]2)C1 (centres unmarked)"
  TGT: "CAPAN-1 (a BRCA-2-mutated pancreatic cancer cell line)"
  inhibition at 100 µM, %: 0.459
- COMPOUND: "NC(=O)c1cccc2[nH]c(C3CCN(CCC(=O)c4ccccc4)C3)nc12 (centres unmarked)"
  TGT: "CAPAN-1 (a BRCA-2-mutated pancreatic cancer cell line)"
  inhibition at 100 µM, %: 99.7

The recorded inhibition at 100 µM for entry C[C@]1(c2nc3c(C(N)=O)cccc3[nH]2)CCCN1 [pc1, Veliparib, reference compound] equals 43.2

The recorded inhibition at 100 µM for entry NCCCN1CCC(c2nc3c(C(N)=O)cccc3[nH]2)C1 (centres unmarked) equals -10.8

The recorded inhibition at 100 µM for entry NC(=O)c1cccc2[nH]c(C3CCN(CCCNC(=O)c4ccccc4)C3)nc12 (centres unmarked) equals 27.8

The recorded inhibition at 100 µM for entry NC(=O)c1cccc2[nH]c(C3CCN(CCNC(=O)c4ccccc4)C3)nc12 (centres unmarked) equals 29.2

###

Tested on: MDA-MB-436 (a BRCA-1-mutated breast cancer cell line)
EXPERIMENT: Cell proliferation assay, three-day, CellTiter-Glo, MDA-MB-436
Type: cell-based
CONDITION DETAILS: Homo sapiens, MDA-MB-436; 72 h, CellTiter-Glo; read-out: MDA-MB-436 IC50
MEASURE NAME: IC50 (µM)
Reply numerically in µM, unit not repeated.

- COMPOUND: "NC(=O)c1cccc2[nH]c(C3CCN(CC(O)c4ccccc4)C3)nc12 (stereo not drawn) [Compound 5cf]"
  TGT: "MDA-MB-436 (a BRCA-1-mutated breast cancer cell line)"
  IC50 [µM]: 61
- COMPOUND: "O=C(c1cc(Cc2n[nH]c(=O)c3ccccc23)ccc1F)N1CCN(C(=O)C2CC2)CC1 [pc2, Olaparib, reference compound]"
  TGT: "MDA-MB-436 (a BRCA-1-mutated breast cancer cell line)"
  IC50 [µM]: 30.2
- COMPOUND: "NC(=O)c1cccc2[nH]c(C3CCN(CCC(=O)Nc4ccccc4)C3)nc12 (stereo not drawn) [Compound 5cb]"
  TGT: "MDA-MB-436 (a BRCA-1-mutated breast cancer cell line)"
  IC50 [µM]: 90.4
- COMPOUND: "NC(=O)c1cccc2[nH]c(C3CCN(CCC(=O)c4ccc(Cl)cc4)C3)nc12 (stereo not drawn) [Compound 5cj]"
  TGT: "MDA-MB-436 (a BRCA-1-mutated breast cancer cell line)"
  IC50 [µM]: 17.4
- COMPOUND: "NC(=O)c1cccc2[nH]c(C3CCN(CCC(=O)c4ccccc4)C3)nc12 (stereo not drawn) [Compound 5cp]"
  TGT: "MDA-MB-436 (a BRCA-1-mutated breast cancer cell line)"
  IC50 [µM]: 19.8

# next compound below
The recorded IC50 for entry NC(=O)c1cccc2[nH]c(C3CCN(CCCC(=O)c4ccccc4)C3)nc12 (stereo not drawn) [Compound 5cc] equals 31.9

###

Test system: CAPAN-1 (a BRCA-2-mutated pancreatic cancer cell line)
EXPERIMENT: Cell proliferation assay, three-day, CellTiter-Glo, CAPAN-1
Assay type: cell-based
CONDITION DETAILS: Homo sapiens; CAPAN-1, 1.23 uM, replicate 2; read-out: Inh % 2
MEASURE NAME: inhibition at 1.23 µM (%)
Reply numerically in %, unit not repeated.

Consider the reported inhibition at 1.23 µM for these compounds:
- COMPOUND: "NC(=O)c1cccc2[nH]c(C3CCN(CC(=O)c4ccccc4)C3)nc12 (stereo not shown)"
  VALUE UNITS: "%"
  inhibition at 1.23 µM: 3.2
- COMPOUND: "NC(=O)c1cccc2[nH]c(C3CCN(CCC(=O)Nc4ccccc4)C3)nc12 (stereo not shown)"
  VALUE UNITS: "%"
  inhibition at 1.23 µM: -0.64
- COMPOUND: "NC(=O)c1cccc2[nH]c(C3CCN(CCC(=O)c4ccc(Cl)cc4)C3)nc12 (stereo not shown)"
  VALUE UNITS: "%"
  inhibition at 1.23 µM: 0.5
- COMPOUND: "NC(=O)c1cccc2[nH]c(C3CCN(CCCN4C(=O)c5ccccc5C4=O)C3)nc12 (stereo not shown)"
  VALUE UNITS: "%"
  inhibition at 1.23 µM: 3.7
- COMPOUND: "NC(=O)c1cccc2[nH]c(C3CCN(CCN4C(=O)c5ccccc5C4=O)C3)nc12 (stereo not shown)"
  VALUE UNITS: "%"
  inhibition at 1.23 µM: -9.8
- COMPOUND: "NC(=O)c1cccc2[nH]c(C3CCN(CC(=O)Nc4ccccc4)C3)nc12 (stereo not shown)"
  VALUE UNITS: "%"
  inhibition at 1.23 µM: 9.6
- COMPOUND: "NC(=O)c1cccc2[nH]c(C3CCN(CC(O)c4ccccc4)C3)nc12 (stereo not shown)"
  VALUE UNITS: "%"
  inhibition at 1.23 µM: 8.1
- COMPOUND: "COc1ccc(C(=O)CCN2CCC(c3nc4c(C(N)=O)cccc4[nH]3)C2)cc1 (stereo not shown)"
  VALUE UNITS: "%"
  inhibition at 1.23 µM: -10.7
- COMPOUND: "NC(=O)c1cccc2[nH]c(C3CCN(CCCNc4ccccc4)C3)nc12 (stereo not shown)"
  VALUE UNITS: "%"
  inhibition at 1.23 µM: -3.6

# next compound below
The recorded inhibition at 1.23 µM for entry NC(=O)c1cccc2[nH]c(C3CCN(CCCC(=O)c4ccccc4)C3)nc12 (stereo not shown) equals 5.8

###

System: MDA-MB-436 (a BRCA-1-mutated breast cancer cell line)
EXPERIMENT: Cell proliferation assay, three-day, CellTiter-Glo, MDA-MB-436
Format: cell-based
CONDITION DETAILS: Homo sapiens, MDA-MB-436; 72 h, CellTiter-Glo; read-out: MDA-MB-436 IC50
MEASURE NAME: IC50 (µM)
Reply numerically in µM, unit not repeated.

- MOLECULE: "NC(=O)c1cccc2[nH]c(C3CCN(CC(=O)c4ccccc4)C3)nc12 (stereo not shown) [Compound 5cd]"
  IC50 (µM): 55

# next molecule below
IC50 value, target or system MDA-MB-436 (a BRCA-1-mutated breast cancer cell line), for COc1ccc(C(=O)CCN2CCC(c3nc4c(C(N)=O)cccc4[nH]3)C2)cc1 (stereo not shown) [Compound 5ci] : 38.6
